Recorded values, source paper PMC10102027.

system: HIV-1 LTR G-quadruplex template (G4 LTR Stop); test: Taq polymerase stop assay; type: biochemical; conditions: 2.5 µM, pixel intensity normalized against negative control
readout name: Fold change: C (G-patch 5)
Enter a number only.

Look over these answered cases.
C(=C\c1cc(/C=C/c2ccc3c(c2)CCO3)[n+]2c(c1)-c1c(ccc3c1-c1cccc[n+]1CCC3)CCC2)/c1ccc2c(c1)CCO2: 1.5
Cn1cc(/C=C/c2cc(/C=C/c3cn(C)c4ccccc34)[n+]3c(c2)-c2c(ccc4c2-c2cccc[n+]2CCC4)CCC3)c2ccccc21: 1.5
NCCOc1cc(C(=O)Nc2cc(OCCN)c3ccccc3n2)nc(C(=O)Nc2cc(OCCN)c3ccccc3n2)c1 [PDS, pyridostatin, reference compound]: 1.6

Next, consider the following molecule.
Read the entry `COc1ccc2ccccc2c1/C=C/c1cc[n+]2c(c1)-c1c(c(C)c(C)c3c1-c1cc(/C=C/c4c(OC)ccc5ccccc45)cc[n+]1CC3)CC2` and write its reported Fold change: C (G-patch 5).
1.8
